STUDY_TARGET: Mitogen-activated protein kinase kinase kinase 5 (Homo sapiens) (UniProt Q99683)
ASSAY_INFO: Inhibition of human ASK1 using MBP as substrate assessed as residual activity at 10 uM incubated for 10 mins prior to ATP addition measured after 20 mins by liquid scintillation counting analysis
PROPERTY_NAME: Activity (%)

| COMPOUND | STUDY_TARGET | OUTPUT_UNIT | NUMERIC_RESULT |
| --- | --- | --- | --- |
| O=C(O)CCCN1C(=O)/C(=C/c2ccc(-c3ccc(Br)cc3)o2)SC1=S | Mitogen-activated protein kinase kinase kinase 5 (Homo sapiens) (UniProt Q99683) | % | 3 |
| CC(C(=O)O)N1C(=O)/C(=C/c2ccc(-c3ccc(Cl)c(Cl)c3)o2)SC1=S (stereo not given) | Mitogen-activated protein kinase kinase kinase 5 (Homo sapiens) (UniProt Q99683) | % | 3 |
| O=C(O)CCCCCN1C(=O)/C(=C/c2ccc(-c3ccc(Br)cc3)o2)SC1=S | Mitogen-activated protein kinase kinase kinase 5 (Homo sapiens) (UniProt Q99683) | % | 3 |
| O=C(O)CCN1C(=O)/C(=C/c2ccc(-c3ccccc3F)o2)SC1=S | Mitogen-activated protein kinase kinase kinase 5 (Homo sapiens) (UniProt Q99683) | % | 2.5 |
| O=C(O)CCCN1C(=O)/C(=C/c2ccc(-c3ccccc3Cl)o2)SC1=S | Mitogen-activated protein kinase kinase kinase 5 (Homo sapiens) (UniProt Q99683) | % | 3.5 |

----------
STUDY_TARGET: Mitogen-activated protein kinase kinase kinase 5 (Homo sapiens)
Sequence (Q99683 whole entry): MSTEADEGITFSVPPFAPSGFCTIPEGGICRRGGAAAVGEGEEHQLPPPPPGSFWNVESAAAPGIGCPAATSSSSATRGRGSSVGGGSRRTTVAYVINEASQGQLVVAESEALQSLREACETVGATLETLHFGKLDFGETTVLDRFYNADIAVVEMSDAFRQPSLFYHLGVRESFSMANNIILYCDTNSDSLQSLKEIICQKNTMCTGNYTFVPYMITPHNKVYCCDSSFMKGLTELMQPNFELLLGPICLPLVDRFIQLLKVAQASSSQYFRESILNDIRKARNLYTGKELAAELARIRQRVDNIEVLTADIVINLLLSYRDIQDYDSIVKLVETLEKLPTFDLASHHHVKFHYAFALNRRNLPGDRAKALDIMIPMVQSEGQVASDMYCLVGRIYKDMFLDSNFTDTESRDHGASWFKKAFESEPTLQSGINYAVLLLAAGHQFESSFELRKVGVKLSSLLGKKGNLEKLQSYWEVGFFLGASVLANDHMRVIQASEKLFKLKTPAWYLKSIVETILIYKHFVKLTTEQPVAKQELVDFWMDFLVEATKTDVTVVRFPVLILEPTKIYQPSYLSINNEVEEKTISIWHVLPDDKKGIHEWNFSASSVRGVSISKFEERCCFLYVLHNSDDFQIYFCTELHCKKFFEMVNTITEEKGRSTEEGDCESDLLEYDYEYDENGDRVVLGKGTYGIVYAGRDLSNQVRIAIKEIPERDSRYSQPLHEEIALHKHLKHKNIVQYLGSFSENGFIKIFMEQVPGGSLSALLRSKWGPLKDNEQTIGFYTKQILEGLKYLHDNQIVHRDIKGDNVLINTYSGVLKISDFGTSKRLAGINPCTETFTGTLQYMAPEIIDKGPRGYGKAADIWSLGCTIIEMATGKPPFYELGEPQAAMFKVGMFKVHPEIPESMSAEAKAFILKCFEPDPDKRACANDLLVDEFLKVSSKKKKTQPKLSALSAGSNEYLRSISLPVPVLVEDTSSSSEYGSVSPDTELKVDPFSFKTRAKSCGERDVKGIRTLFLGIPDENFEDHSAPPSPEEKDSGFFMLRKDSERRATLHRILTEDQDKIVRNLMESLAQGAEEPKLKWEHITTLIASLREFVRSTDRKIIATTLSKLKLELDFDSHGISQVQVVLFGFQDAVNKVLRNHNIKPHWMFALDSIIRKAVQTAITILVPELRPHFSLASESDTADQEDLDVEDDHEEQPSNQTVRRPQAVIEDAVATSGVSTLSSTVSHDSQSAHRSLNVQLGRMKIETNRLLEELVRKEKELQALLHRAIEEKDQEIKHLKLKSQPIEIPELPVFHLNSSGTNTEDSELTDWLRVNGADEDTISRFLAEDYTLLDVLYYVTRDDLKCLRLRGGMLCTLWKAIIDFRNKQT
ASSAY_INFO: Inhibition of human ASK1 using MBP as substrate incubated for 10 mins prior to ATP addition measured after 20 mins by liquid scintillation counting analysis
PROPERTY_NAME: IC50 (nM)

(P) O=C1/C(=C/c2ccc(-c3ccc(Br)cc3)o2)SC(=S)N1c1cccc(O)c1
(Q) O=C(O)CCCN1C(=O)/C(=C/c2ccc(-c3ccc(Br)cc3)o2)SC1=S
(R) CCC(C(=O)O)N1C(=O)/C(=C/c2ccc(-c3cc(Cl)ccc3Cl)o2)SC1=S (stereo not given)
(S) O=C(O)CCCN1C(=O)/C(=C/c2ccc(-c3cccc(Cl)c3)o2)SC1=S
Challenge: Rank the 4 compounds: largest IC50 first, smallest last. Submit the labels in the order that the ranking request calls for.
Response given: P, R, S, Q
(P: 2000 nM, R: 500 nM, S: 350 nM, Q: 200 nM)

----------
STUDY_TARGET: Fibroblast growth factor receptor 1 (Homo sapiens)
ASSAY_INFO: Inhibition of human FGFR1 using IGF-IRtide (12 to 527) as substrate assessed as residual activity at 10 uM incubated for 10 mins prior to ATP addition measured after 20 mins by liquid scintillation counting analysis
PROPERTY_NAME: Activity (%)

Check out these entries, answers already filled in.
| MOLECULE | OUTPUT_UNIT | Activity |
| --- | --- | --- |
| O=C(O)CCCN1C(=O)/C(=C/c2ccc(-c3ccccc3Cl)o2)SC1=S | % | 16 |
| CC(C(=O)O)N1C(=O)/C(=C/c2ccc(-c3ccc(Cl)c(Cl)c3)o2)SC1=S (stereo not given) | % | 88 |

(I) O=C(O)CCCCCN1C(=O)/C(=C/c2ccc(-c3ccc(Br)cc3)o2)SC1=S
(II) O=C(O)CCCN1C(=O)/C(=C/c2ccc(-c3ccc(Br)cc3)o2)SC1=S
Challenge: # min-compare on Activity between I and II Answer with the label corresponding to your selection.
Response given: I
(I: 5%, II: 10%)

----------
STUDY_TARGET: Casein kinase II (Homo sapiens) (UniProt P67870+P68400+P19784)
ASSAY_INFO: Inhibition of human CK2 using RRRDDDSDDD as substrate assessed as residual activity at 10 uM incubated for 10 mins prior to ATP addition measured after 20 mins by liquid scintillation counting analysis
Type: protein-complex assay
PROPERTY_NAME: Activity (%)

Check out these entries, answers already filled in.
| MOLECULE | NUMERIC_RESULT |
| --- | --- |
| O=C(O)CCCN1C(=O)/C(=C/c2ccc(-c3ccccc3Cl)o2)SC1=S | 15 |
| O=C(O)CCCCCN1C(=O)/C(=C/c2ccc(-c3ccc(Br)cc3)o2)SC1=S | 34 |

(a) CC(C(=O)O)N1C(=O)/C(=C/c2ccc(-c3ccc(Cl)c(Cl)c3)o2)SC1=S (stereo not given)
(b) O=C(O)CCN1C(=O)/C(=C/c2ccc(-c3ccccc3F)o2)SC1=S
Challenge: Name the one with the greater Activity value, either a or b as given. Answer with the label corresponding to your selection.
Response given: b

----------
STUDY_TARGET: Aurora kinase A (Homo sapiens)
Sequence (whole entry): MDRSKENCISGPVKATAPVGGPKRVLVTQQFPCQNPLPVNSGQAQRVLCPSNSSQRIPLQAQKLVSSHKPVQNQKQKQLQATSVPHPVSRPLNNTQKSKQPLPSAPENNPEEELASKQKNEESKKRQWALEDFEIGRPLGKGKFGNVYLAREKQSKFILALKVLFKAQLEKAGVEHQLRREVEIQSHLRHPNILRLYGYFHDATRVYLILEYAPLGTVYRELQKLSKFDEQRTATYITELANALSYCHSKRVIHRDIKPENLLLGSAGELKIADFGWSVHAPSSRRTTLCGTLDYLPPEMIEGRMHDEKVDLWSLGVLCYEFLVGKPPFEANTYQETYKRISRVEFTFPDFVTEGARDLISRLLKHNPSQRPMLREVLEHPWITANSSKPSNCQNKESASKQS
ASSAY_INFO: Inhibition of human Aurora A using Kemptide as substrate assessed as residual activity at 10 uM incubated for 10 mins prior to ATP addition measured after 20 mins by liquid scintillation counting analysis
PROPERTY_NAME: Activity (%)

Check out these entries, answers already filled in.
| MOLECULE | PROPERTY_NAME | NUMERIC_RESULT |
| --- | --- | --- |
| O=C(O)CCCN1C(=O)/C(=C/c2ccc(-c3ccccc3Cl)o2)SC1=S | Activity | 14 |
| O=C(O)CCCN1C(=O)/C(=C/c2ccc(-c3ccc(Br)cc3)o2)SC1=S | Activity | 100 |
| O=C(O)CCCCCN1C(=O)/C(=C/c2ccc(-c3ccc(Br)cc3)o2)SC1=S | Activity | 21 |

(I) O=C(O)CCN1C(=O)/C(=C/c2ccc(-c3ccccc3F)o2)SC1=S
(II) CC(C(=O)O)N1C(=O)/C(=C/c2ccc(-c3ccc(Cl)c(Cl)c3)o2)SC1=S (stereo not given)
Challenge: # min-compare on Activity between I and II Answer with the label corresponding to your selection.
Response given: II
(II: 14%, I: 39%)
